target: GV sPLA2 (Homo sapiens); experiment: In vitro PLA2 mixed micellar assay (modified Dole assay), GV sPLA2; format: biochemical; details: at 0.091 mole fraction of inhibitor, n = 3
Sequence (P39877 21-138): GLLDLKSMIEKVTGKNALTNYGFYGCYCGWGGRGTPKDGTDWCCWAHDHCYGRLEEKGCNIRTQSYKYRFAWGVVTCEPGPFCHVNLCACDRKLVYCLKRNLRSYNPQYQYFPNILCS
// GV sPLA2 % inhibition lookup, one value per entry
Give the number; % is assumed, so skip it.

CCCCCCCCCCCCCCC(=O)C(=O)N[C@@H](CCCC)C(=O)NCC(=O)OC [Compound 4a] ... 65
CCCCCCCCCCCCCCC(=O)C(=O)N[C@@H](CCCC)C(=O)NCC(=O)OC(C)(C)C [Compound 8a] ... 59

Quick check: GV sPLA2 % inhibition of CCCCCCCCCCCCCCC(=O)C(=O)N[C@@H](CCCC)C(=O)NCC(=O)OCC [Compound 4c] ?
63

Try this molecule next: CCCCCCCCCCCCCCC(=O)C(=O)N[C@@H](CCCC)COCC(=O)OC(C)(C)C [Compound 17]
57

###

target: GIVA cPLA2 (Homo sapiens); test: In vitro PLA2 mixed micellar assay (modified Dole assay), GIVA cPLA2; format: biochemical; conditions: at 0.091 mole fraction of inhibitor, n = 3
Sequence (P47712 whole entry): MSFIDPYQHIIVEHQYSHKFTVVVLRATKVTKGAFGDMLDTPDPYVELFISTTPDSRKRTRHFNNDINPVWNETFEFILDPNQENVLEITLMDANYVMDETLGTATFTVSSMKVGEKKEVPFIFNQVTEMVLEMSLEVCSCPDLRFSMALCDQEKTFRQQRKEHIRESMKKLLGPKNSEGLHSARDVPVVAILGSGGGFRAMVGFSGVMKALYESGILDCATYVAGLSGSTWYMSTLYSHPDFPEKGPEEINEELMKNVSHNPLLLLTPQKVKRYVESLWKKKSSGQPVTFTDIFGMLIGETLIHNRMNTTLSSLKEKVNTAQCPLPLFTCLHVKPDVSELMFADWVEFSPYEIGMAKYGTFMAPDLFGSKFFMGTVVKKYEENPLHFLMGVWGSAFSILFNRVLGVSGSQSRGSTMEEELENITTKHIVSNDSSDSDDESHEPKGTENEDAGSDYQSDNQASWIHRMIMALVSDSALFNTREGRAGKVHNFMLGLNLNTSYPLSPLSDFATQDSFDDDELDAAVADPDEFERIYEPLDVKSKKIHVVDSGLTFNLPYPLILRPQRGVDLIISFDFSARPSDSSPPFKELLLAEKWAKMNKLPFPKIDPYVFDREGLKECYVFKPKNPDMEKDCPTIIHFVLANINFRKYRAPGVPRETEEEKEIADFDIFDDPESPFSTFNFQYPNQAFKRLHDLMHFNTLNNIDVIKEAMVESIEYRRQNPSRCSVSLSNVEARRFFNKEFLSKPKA
The label depends only on GIVA cPLA2 % inhibition: Yes if it is at least 50%, No if it is smaller.

CCCCCCCCCCCCCCC(=O)C(=O)N[C@@H](CCCC)COCC(=O)OC(C)(C)C ... No
CCCCCCCCCCCCCCC(=O)C(=O)N[C@H](C(=O)NCC(=O)OC)C(C)C ... No
CCCCCCCCCCCCCCC(=O)C(=O)N[C@@H](CCCC)C(=O)NCC(=O)OC(C)(C)C ... Yes
CCCCCCCCCCCCCCC(=O)C(=O)N[C@@H](CCCC)COCC(=O)OCC ... Yes

GIVA cPLA2 % inhibition >= 50% for `CCCCCCCCCCCCCCC(=O)C(=O)N[C@@H](CCCC)C(=O)NCC(=O)OCC` ?
Yes

###

endpoint: melting point

CCCCCCCCCCCCCCC(=O)C(=O)N[C@@H](CCCC)COCC(=O)O [Compound 18] ... 64 to 66 °C
CCCCCCCCCCCCCCC(=O)C(=O)N[C@@H](CCCC)C(=O)NCC(=O)OC(C)(C)C [Compound 8a] ... 38 to 39 °C
CCCCCCCCCCCCCCC(=O)C(=O)N[C@@H](CCCC)C(=O)NCC(=O)OC [Compound 4a] ... 65 to 67 °C

Quick check: melting point of CCCCCCCCCCCCCCC(=O)C(=O)N[C@@H](CCCC)C(=O)NCC(=O)OCC [Compound 4c] ?
63 to 65 °C

###

target: GV sPLA2 (Homo sapiens); experiment: In vitro PLA2 mixed micellar assay (modified Dole assay), GV sPLA2; assay type: biochemical; details: at 0.091 mole fraction of inhibitor, n = 3
// inhibition at 0.091 mole fraction lookup, one value per entry

Below are worked cases with known answers.
CCCCCCCCCCCCCCC(=O)C(=O)N[C@@H](CCCC)COCC(=O)O ... < 25%
CCCCCCCCCCCCCCC(=O)C(=O)N[C@@H](CCCC)C(=O)NCC(=O)O ... < 25%
CCCCCCCCCCCCCCC(=O)C(=O)N[C@H](C(=O)NCC(=O)OC)C(C)C ... < 25%

Attention now turns to another entry.
Quick check: inhibition at 0.091 mole fraction of `CCCCCCCCCCCCCCC(=O)C(=O)N[C@H](C(=O)NCC(=O)O)C(C)C` ?
< 25%
